- Tested on: RAW-Dual
- EXPERIMENT NOTES: NF-kB SEAP reporter activity, fold change vs agonist alone; cytotoxicity flag (confluency mask): cytotoxic (confluency <70% of control); higher = enhanced NF-kB activity
- RUN PARAMETERS: agonist: LPS (TLR4) 0.1 ug/mL
Whole data set: some 2,900 compounds, median “NF-kB SEAP reporter activity, fold change vs agonist alone” near 0.99, cut for the highest 2% near 2.6. Many of the other results were omitted from the sample, so the highest values are more common in it than they were.
Consider the following compounds; for each one, report its NF-kB SEAP reporter activity.
Quick one: just the number, no unit, thanks!

Query: What measured NF-kB SEAP reporter activity goes with C=Cc1c(C)c2cc3nc(cc4[nH]c(cc5nc(cc1[nH]2)C(C)=C5CCC(=O)O)c(CCC(=O)OC)c4C)C1(C)C3=CC=C(C(=O)OC)C1C(=O)OC (centres undefined) (library stock concentration (final ~1000-fold dilution): 10 mM) ?
Response: 0.243

Query: What measured NF-kB SEAP reporter activity goes with CCCCCCCCCCCCCCCC(=O)NC(CCSC)C(=O)NCC(=O)NC(Cc1ccc(O)cc1)C(=O)NC(CCC(N)=O)C(=O)NC(CCCCN)C(=O)NC(CCCCN)C(=O)NC(CC(C)C)C(=O)NC(CCCNC(=N)N)C(=O)NC(CO)C(=O)NC(CCSC)C(=O)NC(C(=O)NC(CC(=O)O)C(=O)NC(CCCCN)C(=O)NC(Cc1ccc(O)cc1)C(=O)NC(CCCNC(=N)N)C(=O)NC(CC(C)C)C(=O)O)C(C)O (centres undefined) (library stock concentration (final ~1000-fold dilution): 10 mM) ?
Response: 0.885

Query: What measured NF-kB SEAP reporter activity goes with Cc1ccc(C(=O)N(CCCN)C(c2nc3cc(Cl)ccc3c(=O)n2Cc2ccccc2)C(C)C)cc1 (centres undefined) (library stock concentration (final ~1000-fold dilution): 10 mM) ?
Response: 0.331

Query: What measured NF-kB SEAP reporter activity goes with O=[N+]([O-])c1ccc(S(=O)(=O)N2CCN(c3ccnc4cc(Cl)ccc34)CC2)c([N+](=O)[O-])c1 (library stock concentration (final ~1000-fold dilution): 10 mM) ?
Response: 0.384
